TARGET UNDER TEST: YAP-TEAD interaction (Homo sapiens)
Sequence (P28347 whole entry, the tested form may be a part): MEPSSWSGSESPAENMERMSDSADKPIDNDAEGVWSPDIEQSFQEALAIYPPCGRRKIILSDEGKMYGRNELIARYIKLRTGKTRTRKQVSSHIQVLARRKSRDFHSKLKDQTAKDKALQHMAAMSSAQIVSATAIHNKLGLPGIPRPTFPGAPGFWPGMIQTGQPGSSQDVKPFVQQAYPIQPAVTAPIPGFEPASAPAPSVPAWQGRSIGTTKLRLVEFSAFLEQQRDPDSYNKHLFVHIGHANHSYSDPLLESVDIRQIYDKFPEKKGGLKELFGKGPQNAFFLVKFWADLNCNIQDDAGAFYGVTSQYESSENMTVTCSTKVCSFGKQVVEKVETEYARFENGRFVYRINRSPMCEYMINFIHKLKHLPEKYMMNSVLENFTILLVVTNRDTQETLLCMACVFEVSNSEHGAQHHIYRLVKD
PROCEDURE DETAILS: Cell-based TEAD-GAL4 transactivation assay (luciferase reporter)
MEASUREMENT CONTEXT: HEK293 cells transfected with TEAD1-Gal4, YAP mutant (S127A, S397A) and luciferase reporter; compounds 0.1 μM to 30 μM, 24 h
ENDPOINT LABEL: IC50 (nM)
Respond with the bare value in nM.

Consider the reported IC50 for these compounds:
COc1cc(/C=N/N(C)c2ncnc3c(OC)cccc23)ccc1B(O)O ... 2570
COc1cc(C2=NN(C3=NS(=O)(=O)c4ccccc43)CC(C)O2)ccc1B(O)O (stereo not shown) ... 3240
CCN(/N=C/c1ccc2c(c1)COB2O)c1ncnc2nc(N3CCOCC3)sc12 ... 2370

Now, please, on to the next compound.
Q: Which value of IC50 has been reported for COCCCN(/N=C/c1ccc2c(c1)COB2O)C1=NS(=O)(=O)c2ccccc21 in the records?
Result: 2780
